Every entry's value here was drawn from patent US20210369853A1.

test system: Human cervical adenocarcinoma cells Hela; assay: Cell proliferation experiment (Alarm blue, 72 h, EC50); format: cell-based; conditions: Homo sapiens
Measured EC50 of individual entries

Past entries and their recorded results:
For `CC[C@@H]1c2nncn2-c2cnc(Nc3ccc(C(=O)NCCOCC(=O)N[C@H](C(=O)N4C[C@H](O)C[C@H]4C(=O)NCc4ccc(-c5scnc5C)cc4)C(C)(C)C)cc3OC)nc2N1C1CCCC1` , write its EC50.
> 1000 nM

For `CC[C@@H]1c2nncn2-c2cnc(Nc3ccc(C(=O)NCCCOCC(=O)N[C@H](C(=O)N4C[C@H](O)C[C@H]4C(=O)NCc4ccc(-c5scnc5C)cc4)C(C)(C)C)cc3OC)nc2N1C1CCCC1` , write its EC50.
> 1000 nM

---
For CC[C@@H]1c2c(C#N)ncn2-c2cnc(Nc3ccc(C(=O)NCCOCCOCCOCC(=O)Nc4cccc5c4CN(C4CCC(=O)NC4=O)C5=O)cc3OC)nc2N1C1CCCC1 (some centres unmarked) , write its EC50.
> 1000 nM

For CC[C@@H]1c2nncn2-c2cnc(Nc3ccc(C(=O)NCCCOCC(=O)Nc4cccc5c4CN(C4CCC(=O)NC4=O)C5=O)cc3OC)nc2N1C1CCCC1 (some centres unmarked) , write its EC50.
> 1000 nM

For CC[C@@H]1c2nncn2-c2cnc(Nc3ccc(C(=O)NCCOCCOCC(=O)Nc4cccc5c4CN(C4CCC(=O)NC4=O)C5=O)cc3OC)nc2N1C1CCCC1 (some centres unmarked) , write its EC50.
> 1000 nM

For CC[C@@H]1c2nncn2-c2cnc(Nc3ccc(C(=O)NCCOCCOCCC(=O)Nc4cccc5c4CN(C4CCC(=O)NC4=O)C5=O)cc3OC)nc2N1C1CCCC1 (some centres unmarked) , write its EC50.
> 1000 nM

For `CC[C@@H]1c2c(C#N)ncn2-c2cnc(Nc3ccc(C(=O)NCCOCCOCCOCCC(=O)N[C@H](C(=O)N4C[C@H](O)C[C@H]4C(=O)NCc4ccc(-c5scnc5C)cc4)C(C)(C)C)cc3OC)nc2N1C1CCCC1` , write its EC50.
> 1000 nM

For CC[C@@H]1C(=O)N(C)c2cnc(Nc3ccc(C(=O)NCCOCCOCCOCCNCCC(=O)Nc4cccc5c4CN(C4CCC(=O)NC4=O)C5=O)cc3OC)nc2N1C1CCCC1 (some centres unmarked) , write its EC50.
100 to 1000 nM

For CC[C@@H]1c2nncn2-c2cnc(Nc3ccc(C(=O)NCCOCCOCCOCC(=O)Nc4cccc5c4CN(C4CCC(=O)NC4=O)C5=O)cc3OC)nc2N1C1CCCC1 (some centres unmarked) , write its EC50.
> 1000 nM

For CC[C@@H]1c2c(C#N)ncn2-c2cnc(Nc3ccc(C(=O)NCCCC(=O)Nc4cccc5c4CN(C4CCC(=O)NC4=O)C5=O)cc3OC)nc2N1C1CCCC1 (some centres unmarked) , write its EC50.
> 1000 nM

For CC[C@@H]1C(=O)N(C)c2cnc(Nc3ccc(C(=O)NC4CCN(CCOCCNCC(=O)Nc5cccc6c5CN(C5CCC(=O)NC5=O)C6=O)CC4)cc3OC)nc2N1Cc1ccc(Cl)s1 (some centres unmarked) , write its EC50.
100 to 1000 nM

---

molecular target: PLK1 (Homo sapiens); construct: endogenous in cells; assay: Western blot, protein degradation (DC50); type: cell-based; conditions: 24 h; read-out: PLK1 DC50 (nM) (24 h)
Sequence (P53350 whole entry): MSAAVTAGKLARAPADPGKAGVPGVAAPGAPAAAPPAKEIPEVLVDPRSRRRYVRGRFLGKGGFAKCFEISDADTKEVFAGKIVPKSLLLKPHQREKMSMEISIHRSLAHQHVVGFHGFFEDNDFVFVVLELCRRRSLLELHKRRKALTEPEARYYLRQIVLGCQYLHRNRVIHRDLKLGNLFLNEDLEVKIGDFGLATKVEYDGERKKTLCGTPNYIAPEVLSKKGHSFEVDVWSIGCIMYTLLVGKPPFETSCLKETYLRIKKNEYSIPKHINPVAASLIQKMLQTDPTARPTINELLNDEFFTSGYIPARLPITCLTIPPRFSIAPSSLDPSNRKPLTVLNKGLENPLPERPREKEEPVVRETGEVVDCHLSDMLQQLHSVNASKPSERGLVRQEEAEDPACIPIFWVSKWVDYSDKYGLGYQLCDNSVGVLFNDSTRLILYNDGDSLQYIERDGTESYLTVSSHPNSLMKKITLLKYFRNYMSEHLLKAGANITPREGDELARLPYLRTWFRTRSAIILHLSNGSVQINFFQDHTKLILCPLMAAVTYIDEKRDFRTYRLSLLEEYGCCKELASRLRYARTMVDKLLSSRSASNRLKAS
endpointLabel: DC50

For CC[C@@H]1C(=O)N(C)c2cnc(Nc3ccc(C(=O)NCc4cn(CCNCCOCC(=O)Nc5cccc6c5CN(C5CCC(=O)NC5=O)C6=O)nn4)cc3OC)nc2N1C1CCCC1 (stereo partly shown) , write its DC50.
< 10 nM

For CC[C@@H]1C(=O)N(C)c2cnc(Nc3ccc(C(=O)NC4CCN(CCOCCNCC(=O)Nc5cccc6c5CN(C5CCC(=O)NC5=O)C6=O)CC4)cc3OC)nc2N1Cc1ccc(Cl)s1 (stereo partly shown) , write its DC50.
< 10 nM

For CC[C@@H]1C(=O)N(C)c2cnc(Nc3ccc(C(=O)NCc4cn(CCCN(CCC(=O)Nc5cccc6c5CN(C5CCC(=O)NC5=O)C6=O)C(=O)OCc5ccc(NC(=O)[C@H](CCCNC(N)=O)NC(=O)[C@@H](NC(=O)CCCCCN6C(=O)C=CC6=O)C(C)C)cc5)nn4)cc3OC)nc2N1C1CCCC1 (stereo partly shown) , write its DC50.
10 to 100 nM

For CC[C@@H]1C(=O)N(C)c2cnc(Nc3ccc(C(=O)NC4CCN(CCOCCNCC(=O)Nc5cccc6c5CN(C5CCC(=O)NC5=O)C6=O)CC4)cc3OC)nc2N1Cc1cnc(C)s1 (stereo partly shown) , write its DC50.
< 10 nM

For CC[C@@H]1C(=O)N(C)c2cnc(Nc3ccc(C(=O)NCc4cn(CCNCCC(=O)Nc5cccc6c5CN(C5CCC(=O)NC5=O)C6=O)nn4)cc3OC)nc2N1Cc1ccc(Cl)s1 (stereo partly shown) , write its DC50.
< 10 nM

---
For CC[C@@H]1c2c(C#N)ncn2-c2cnc(Nc3ccc(C(=O)NCc4cn(CCNCCOCC(=O)Nc5cccc6c5CN(C5CCC(=O)NC5=O)C6=O)nn4)cc3OC)nc2N1C1CCCC1 (stereo partly shown) , write its DC50.
100 to 1000 nM

For CC[C@@H]1C(=O)N(C)c2cnc(Nc3ccc(C(=O)NCc4cn(CCNCCOCC(=O)Nc5cccc6c5CN(C5CCC(=O)NC5=O)C6=O)nn4)cc3OC)nc2N1Cc1ccc(Cl)s1 (stereo partly shown) , write its DC50.
< 10 nM
